Values compiled from PubChem BioAssay (NCI).

tested on: HOP-62 NSCLC; test: NCI tumour cell line growth inhibition, 48 h
Listed below: TGI values for each entry.

Molecule: Cc1cccc(C)c1NC(=S)/N=C/C1=C(O)c2ccccc2C1=O
Target Or Test System: HOP-62 NSCLC
TGI: > 100 µM

Molecule: OC[C@H]1CC(c2nn[nH]n2)[C@H](O)[C@@H]1O (stereo not given in full)
Target Or Test System: HOP-62 NSCLC
TGI: > 100 µM

Molecule: COC(=O)C1CCc2c(OC)ccc(OC)c2C1=O (stereo not given)
Target Or Test System: HOP-62 NSCLC
TGI: > 100 µM

Molecule: COCCOC(C)C(/C=N/NC(N)=S)=N/NC(N)=S (stereo not given)
Target Or Test System: HOP-62 NSCLC
TGI: > 100 µM

Molecule: COc1ccc(C2=C(OC(C)=O)c3cccn3-c3ccccc3S2)cc1
Target Or Test System: HOP-62 NSCLC
TGI: > 10 µM

Molecule: CC1CC2C3CC(F)C4=CC(=O)C=CC4(C)C3(F)C(O)CC2(C)C1(O)C(=O)CO (stereo not given)
Target Or Test System: HOP-62 NSCLC
TGI: > 100 µM

Molecule: Cn1ncc2c(NCCc3ccccc3)nc(Cl)nc21
Target Or Test System: HOP-62 NSCLC
TGI: 81.3 µM

Molecule: O=[N+]([O-])c1ccc2nc(N/N=C/c3ccc(O)cc3)sc2c1
Target Or Test System: HOP-62 NSCLC
TGI: 30.7 µM

Molecule: CCCNc1[nH]c(C(C)=O)c(N)c1C(=S)Nc1ccccc1
Target Or Test System: HOP-62 NSCLC
TGI: > 100 µM

Molecule: Cc1c2n(c3ccccc13)CC1C2N(C)OC1(C)C (stereo not given)
Target Or Test System: HOP-62 NSCLC
TGI: > 100 µM

Molecule: O=C(Nc1ccc(-n2cc(-c3ccncc3)c(-c3ccc(Cl)c(O)c3)n2)cc1)c1cc(Cl)cc(Cl)c1
Target Or Test System: HOP-62 NSCLC
TGI: 18.8 µM

Molecule: COc1cc2cc(C(=O)O)[nH]c2cc1OCc1ccccc1
Target Or Test System: HOP-62 NSCLC
TGI: > 100 µM

Molecule: CN(C)CCCC1(c2ccc(F)cc2)OCc2cc(-c3ccc4cc[nH]c4c3)ccc21 (stereo not given)
Target Or Test System: HOP-62 NSCLC
TGI: 3.71 µM

Molecule: CC(C)(C)OC(=O)C(C1NC(C(=O)O)C(C)(C)S1)N1C(=O)c2ccccc2C1=O (stereo not given)
Target Or Test System: HOP-62 NSCLC
TGI: > 100 µM

Molecule: O=C(O)[C@@H]1C[C@@H](O)CN1
Target Or Test System: HOP-62 NSCLC
TGI: > 100 µM

* * *

test system: HS 578T breast; assay: NCI tumour cell line growth inhibition, 48 h; in the data active means GI50 below about 0.43 µM; inactive means the rest
Possible outcomes: active, inactive

Molecule: O=C(N/N=C/c1cc2ccccc2c2ccccc12)c1cc(O)c(O)c(O)c1
Assigned Category: inactive
--
Molecule: Cc1ccc(NC2=C(Cl)C(=O)c3nc(C)ccc3C2=O)cc1
Assigned Category: inactive
--
Molecule: NC1=C(c2nc(-c3cc4ccccc4oc3=O)cs2)C(c2ccco2)c2c(c3ccccc3oc2=O)O1 (stereo unspecified)
Assigned Category: inactive
--
Molecule: Cc1c2c(cc[n+]1Cc1ccccc1)c1ccc(OCC3CCCCC3)cc1n2CC1CCCCC1
Assigned Category: inactive
--
Molecule: O=C(c1cccs1)c1c(C(F)(F)F)n([O-])c2cc(F)c(F)cc2[n+]1=O
Assigned Category: inactive
--
Molecule: COc1ccc(OC)c(-c2nc3sccn3c2/C=C2/C(=O)Nc3ccccc32)c1
Assigned Category: active
--
Molecule: Cc1cc(NC(=O)CCc2ccc(N3C(N)=NC(N)=NC3(C)C)cc2)ccc1S(=O)(=O)F
Assigned Category: inactive
--
Molecule: Clc1ccc2c(NCCCN3CCN(c4nc(-n5ccnc5)nc5ccccc45)CC3)ccnc2c1
Assigned Category: inactive
--
Molecule: O=C(Nc1ccc(-n2cc(-c3ccncc3)c(-c3ccc(Cl)c(O)c3)n2)cc1)c1cc(Cl)cc(Cl)c1
Assigned Category: inactive
--
Molecule: O=c1cccc(C#CCCCCOC2CCCO2)o1 (stereo unspecified)
Assigned Category: inactive
--
Molecule: O=C1C(Nc2ccccn2)=C(I)C(=O)c2ncccc21
Assigned Category: inactive

* * *

tested on: MALME-3M melanoma; experiment: NCI tumour cell line growth inhibition, 48 h; in the data active = GI50 below about 0.43 µM; inactive = the rest
Possible outcomes: label 1 for active, label 0 for inactive

Compound: O=S(=O)(Nc1ccc(Cl)c(C(F)(F)F)c1)c1ccc(-c2cnc(C3CC3)o2)cc1
Assigned Category: label 0

Compound: Clc1ccc2c(NCCCN3CCN(c4nc(-n5ccnc5)nc5ccccc45)CC3)ccnc2c1
Assigned Category: label 0

Compound: Cc1ccc(NC2=C(Cl)C(=O)c3nc(C)ccc3C2=O)cc1
Assigned Category: label 0

Compound: O=C1C(Nc2ccccn2)=C(I)C(=O)c2ncccc21
Assigned Category: label 0

Compound: N#CC1=C(N)Oc2c(sc3c(F)cccc23)C1c1ccc([N+](=O)[O-])cc1 (stereo not given)
Assigned Category: label 1

Compound: NC(N)=NC(N)=NCCc1ccccc1
Assigned Category: label 0

Compound: Cc1cc(N2CCN(C)CC2)nc(NC2CCCC(Nc3ccnc4cc(Cl)ccc34)C2)n1 (stereo not given)
Assigned Category: label 0

Compound: CS(=O)(=O)c1ccc(C(F)(F)F)cc1NC(=O)Nc1cnc(Oc2ccc(-c3cc(Cl)cnc3N)cc2)nc1
Assigned Category: label 0

Compound: O=C(c1cccs1)c1c(C(F)(F)F)n([O-])c2cc(F)c(F)cc2[n+]1=O
Assigned Category: label 0

Compound: CCOC(=O)C(=Cc1ccc(Br)cc1)C(=O)OCC
Assigned Category: label 0

* * *

Listed below: TGI values for each entry.
test system: 786-0 renal; test: NCI tumour cell line growth inhibition, 48 h

Compound: O=S(=O)(Nc1ccccc1S(=O)(=O)c1ccccc1)c1ccccc1
TGI: > 100 µM
//
Compound: COC(=O)c1ccccc1CC1Cc2cc3c(cc2C1)CCC3
TGI: > 100 µM
//
Compound: CC(=O)OCCn1c(Cc2ccc([N+](=O)[O-])cc2)nn(C(C)=O)c1=O
TGI: > 100 µM
//
Compound: O=C(O)C1Cc2nc[nH]c2CN1 (configuration not stated)
TGI: > 100 µM
//
Compound: COC(=O)C1CCc2c(OC)ccc(OC)c2C1=O (configuration not stated)
TGI: > 100 µM
//
Compound: COc1cc(C2C(C(=O)O)=C(C)Oc3cc4c(cc32)OCO4)cc(OC)c1OC (configuration not stated)
TGI: > 100 µM
//
Compound: COc1cccc(/C=N/n2c(-c3ccccc3)n[nH]c2=O)c1
TGI: > 100 µM
//
Compound: NC(N)=NC(N)=NCCc1ccccc1
TGI: > 100 µM
//
Compound: O=C1C=C(Br)C(=O)C(Br)=C1
TGI: > 100 µM
//
Compound: CC(C)CCNC(=O)c1ccc(CNC(=O)/C=C/c2ccc(-c3ccccc3[N+](=O)[O-])o2)cc1
TGI: > 100 µM
//
Compound: CN1N=C(c2ccncc2)OC1c1ccc(Cl)c(Cl)c1 (configuration not stated)
TGI: > 100 µM
//
Compound: C=CC1=C(C)C2=NC1=CC1=NC(=C(CC)/C1=C/O)C=C1C=C3C(=O)C(C(=O)OC)C(=C4NC(=C2)C(C)C4CCC(=O)OC/C=C(\C)CCCC(C)CCCC(C)CCCC(C)C)C3=N1 (configuration not stated) (tested in a mixture with another compound)
TGI: > 100 µM
//
Compound: CC(C)(C)C1CCC2c3c([nH]c4ccccc34)C3C(=O)N(c4ccc(Br)cc4)C(=O)C3C2C1 (configuration not stated)
TGI: 37.3 µM
//
Compound: COc1ccc(OC)c(C2CCc3cnc4nc(N)nc(N)c4c3C2)c1 (configuration not stated)
TGI: > 100 µM
//
Compound: CCCCc1ccc(Nc2nc(Cl)c3[nH]cnc3n2)cc1
TGI: 29.1 µM
//
Compound: CNC(=O)N(CCC#N)CCN(CCN(C(=O)NC)c1ccccc1)C(=O)NC
TGI: > 100 µM
//
Compound: CN1c2ccccc2C2c3c(O)ccc(O)c3C=C([N+](=O)[O-])C21 (configuration not stated)
TGI: 2.13 µM
//
Compound: Cc1cc(N2CCN(C)CC2)nc(NC2CCCC(Nc3ccnc4cc(Cl)ccc34)C2)n1 (configuration not stated)
TGI: 4.15 µM
//
Compound: Nc1nc(Cl)c2ncn(Cc3ccccc3CCl)c2n1
TGI: 52 µM
//
Compound: CSC(=S)NN=C1CCCCC1
TGI: > 100 µM
//
Compound: O=C(O)/C(=C\c1ccccc1)Cc1ccccc1
TGI: > 100 µM
//
Compound: COc1cc(/C=C2\NC(=O)N(/C=C3\C(=O)Oc4ccccc4C3=O)C2=O)ccc1O
TGI: > 100 µM
//
Compound: O=C(Nc1ccc(-n2cc(-c3ccncc3)c(-c3ccc(Cl)c(O)c3)n2)cc1)c1cc(Cl)cc(Cl)c1
TGI: 4.23 µM
//
Compound: C[C@H](CCc1nc(C#N)c(N)o1)[C@H]1CC[C@H]2[C@@H]3[C@@H](O)CC4C[C@@H](O)CC[C@]4(C)[C@H]3C[C@@H](O)[C@]12C (some centres not stated)
TGI: > 86.7 µM
//
Compound: COc1ccc2cc(C(=O)/C=C/c3ccc(OC)c(OC)c3)ccc2c1
TGI: 35.4 µM
//
Compound: CC(C)C1OCC(CO)CO1 (configuration not stated)
TGI: > 100 µM
//
Compound: COC1OC(C)C(OC(=O)C(C)(C)C)C(C)(O)C1O (configuration not stated)
TGI: > 100 µM
//
Compound: Cc1ccc2c(c1)NC(=O)C(N=[N+]=[N-])(c1ccccc1)C2=O (configuration not stated)
TGI: > 100 µM
//
Compound: C=C(C)C1CC[C@]2(C(=O)O)CCC3(C)[C@H](CCC4[C@@]5(C)CC[C@H](OC6OC(CO)C(O)C6OC6OC(C)C(O)C(O)C6O)[C@@](C)(CO)C5CC[C@]43C)C12 (some centres not stated)
TGI: > 100 µM
//
Compound: CC(=O)Nc1ccc(/C=c2\sc3nnc(/C=C/c4ccccc4)n3c2=O)cc1
TGI: > 50 µM
//
Compound: COc1cc2c(cc1OC)-c1cc3ccccc3c(=O)n1CCC2
TGI: > 51.3 µM
//
Compound: COC(=O)[C@]1(c2cc3ccccc3n2S(=O)(=O)c2ccccc2)CC2CCC1NC2 (some centres not stated)
TGI: 27.3 µM
